Recorded IC50 values for a group of compounds are listed next.
Biological target: MMP-1FL (full length interstitial collagenase) (Homo sapiens)
Sequence (P03956 100-469, species assumed): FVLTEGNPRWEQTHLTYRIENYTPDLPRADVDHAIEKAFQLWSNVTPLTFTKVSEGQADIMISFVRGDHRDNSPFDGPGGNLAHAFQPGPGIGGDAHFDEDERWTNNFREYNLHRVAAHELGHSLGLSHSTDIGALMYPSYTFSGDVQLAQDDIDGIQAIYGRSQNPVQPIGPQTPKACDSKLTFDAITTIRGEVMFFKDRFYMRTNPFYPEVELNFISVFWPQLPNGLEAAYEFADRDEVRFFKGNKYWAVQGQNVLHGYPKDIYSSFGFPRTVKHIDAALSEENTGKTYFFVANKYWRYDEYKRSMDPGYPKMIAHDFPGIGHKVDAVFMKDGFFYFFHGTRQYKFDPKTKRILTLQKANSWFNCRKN
Experiment: Thiopeptolide hydrolysis assay, MMP-1FL
Type: biochemical
Conditions: thiopeptolide substrate, HEPES pH 7.0, 22° C.
Entry rule: numbers only, all in µM.

Known IC50 results, listed for orientation:
>>> print(df.to_string())
                                   compound  observed_value
0  CCOc1ccc(-c2ccc(S(=O)(=O)N3CCSC(C)(C)[C@@H]3C(=O)O)cc2)cc1 [Example 43]            7.95
1  CC1(C)[C@H](C(=O)O)N(S(=O)(=O)c2ccc(-c3ccc(Br)cc3)cc2)CCS1(=O)=O [Example 3]             1.7
2  CC1(C)SCCN(S(=O)(=O)c2ccc(-c3ccc(F)c(F)c3)cc2)[C@H]1C(=O)O [Example 41]             9.7

(Q) Consider the compound shown here: CC1(C)SCCN(S(=O)(=O)c2ccc(-c3ccc(CO)cc3)cc2)[C@H]1C(=O)O [Example 5] What is its recorded IC50?
(A) 1.5

(Q) Another compound: CC1(C)SCCN(S(=O)(=O)c2ccc(-c3ccc4ccccc4c3)cc2)[C@H]1C(=O)O [Example 36]
(A) 10.8

(Q) Now the same for CC1(C)SCCN(S(=O)(=O)c2ccc(-c3ccc(Br)cc3)cc2)[C@H]1C(=O)O [Example 1]
(A) 3.1

(Q) Same thing, different compound: CC1(C)SCCN(S(=O)(=O)c2ccc(-c3ccc(Br)cc3)cc2)[C@H]1C(=O)NO [Example 2]
(A) 0.002

(Q) Same question, CN(C)c1ccc(-c2ccc(S(=O)(=O)N3CCSC(C)(C)[C@@H]3C(=O)O)cc2)cc1 [Example 54] this time
(A) 11.3
